Reference source: the supplement of paper PMC3724861

- Tested on: Caupolican (Caup) homeodomain DNA-binding domain
- Sequence: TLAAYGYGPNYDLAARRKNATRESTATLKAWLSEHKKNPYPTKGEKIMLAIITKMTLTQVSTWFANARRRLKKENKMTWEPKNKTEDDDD
- experiment summary: PBM E-score (8-mer, recovered from the published 9-mer minima) (E-score (dimensionless, -0.5 to 0.5)); higher = stronger relative binding preference, active = 0.31 or more
Only a selection was taken, and hits are over-represented in it overall. No count for the full screen is at hand.
Your response should consist of one outcome taken from active, inactive

Look over these answered cases.
Input line: Status in this test for `GTACACCA` ?
Output line: inactive

Input line: Also check `GGACACAA`
Output line: inactive

Input line: Also check `GACATGGA`
Output line: active

Here's the next entry for you.
Input line: Status in this test for `ACAAGTAG` ?
Output line: active

----------
- Test system: Caupolican (Caup) homeodomain DNA-binding domain
- Sequence: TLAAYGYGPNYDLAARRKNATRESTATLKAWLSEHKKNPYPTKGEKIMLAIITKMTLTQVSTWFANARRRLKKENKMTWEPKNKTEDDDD
- experiment summary: PBM E-score (8-mer, recovered from the published 9-mer minima) (E-score (dimensionless, -0.5 to 0.5)); higher = stronger relative binding preference, active = 0.31 or more
This is one part of a sample in which hits are shown more often than they occur. The true hit rate is not given.
Your response should consist of one outcome taken from t (active), f (inactive)

Input line: Status in this test for `GTGTCAAC` ?
Output line: f

Input line: Also check `CTGTCAAA`
Output line: f

Input line: Also check `ATGTCAAT`
Output line: t

Input line: Also check `GTTGTCTA`
Output line: t

Input line: Also check `GCTGTCAA`
Output line: f

Input line: Also check `CTTGTCTA`
Output line: f

Input line: Also check `AGGTCAAA`
Output line: f

Input line: Also check `AACTCGGG`
Output line: f

----------
- System: Caupolican (Caup) homeodomain DNA-binding domain
- Sequence: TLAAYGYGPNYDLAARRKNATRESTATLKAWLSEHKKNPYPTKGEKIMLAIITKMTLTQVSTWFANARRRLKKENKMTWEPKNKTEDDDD
- experiment summary: PBM E-score (8-mer, recovered from the published 9-mer minima) (E-score (dimensionless, -0.5 to 0.5)); higher = stronger relative binding preference, active = 0.31 or more
The entries come from a sample that favours hits as a whole. The true hit rate is not given.
Your response should consist of one outcome taken from Yes (active), No (inactive)

Input line: Status in this test for `ACCTGTAG` ?
Output line: No

Further cases:
Input line: Status in this test for `AAAACAAC` ?
Output line: No

Input line: Also check `AAAACGTG`
Output line: No

Input line: Also check `ATGTCGTC`
Output line: No

----------
- Tested on: Caupolican (Caup) homeodomain DNA-binding domain
- Sequence: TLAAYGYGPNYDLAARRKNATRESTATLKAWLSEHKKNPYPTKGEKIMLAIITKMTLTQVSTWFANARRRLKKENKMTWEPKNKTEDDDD
- experiment summary: PBM E-score (8-mer, recovered from the published 9-mer minima) (E-score (dimensionless, -0.5 to 0.5)); Drosophila protein; higher = stronger relative binding preference, active = 0.31 or more
The entries come from a sample that favours hits as a whole. The hit rate among all sequences tested is not known here.
Your response should consist of one outcome taken from active, inactive

Input line: Status in this test for `ACATATTG` ?
Output line: inactive

Input line: Also check `AACATAAG`
Output line: inactive

Input line: Also check `GCGATACA`
Output line: inactive

Input line: Also check `CCCGTGAA`
Output line: inactive

Input line: Also check `ATCAAAAT`
Output line: inactive

Input line: Also check `TGCGATAA`
Output line: inactive

Input line: Also check `ATTTCCTG`
Output line: inactive

Input line: Also check `AACCGGCG`
Output line: inactive

Input line: Also check `ATATGTCC`
Output line: inactive

Input line: Also check `TATGTACA`
Output line: active

Input line: Also check `CAACACGA`
Output line: inactive

Input line: Also check `AATGTACT`
Output line: inactive

Input line: Also check `CCATATCA`
Output line: inactive
